In this section we review reported ka values for a set of molecules.
target_system: T1, human PRLR ECD (Homo sapiens, UniProt P16471)
T1 construct: His6 (C); made in house; host or cells: Tn5 insect cells, baculovirus
T1 sequence (P16471 25-234): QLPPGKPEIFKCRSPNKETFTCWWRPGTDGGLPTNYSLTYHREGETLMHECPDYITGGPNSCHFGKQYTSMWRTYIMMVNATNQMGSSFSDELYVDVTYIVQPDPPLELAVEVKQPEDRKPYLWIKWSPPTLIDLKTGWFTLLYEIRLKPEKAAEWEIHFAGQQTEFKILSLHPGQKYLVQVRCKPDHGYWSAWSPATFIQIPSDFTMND
assay_method_text: Biacore kinetic titration, antibody captured on Protein A/G
Assay type: binding
condition_details: Table 9, Human PRLR ECD; unit not given
Description: Affinity of the chimerized and HUMAN ENGINEERED™ antibodies determined by Biacore analysis. Briefly, a CM5 sensor chip (Biacore) immobilized with Protein A/G (Pierce) via NHS/EDC was used to capture approximately 600 RU of antibody on the chip surface. […] Kinetic and derived parameters (ka, kd and KD) were determined by fitting to a 1:1 Langmuir model using BiaEval software customized to the kinetic titration injection mode. […]
observable: ka

molecule="he.06.275-3: HUMAN-ENGINEERED antibody from XHA.06.275; variable regions SEQ ID NO: 92 and SEQ ID NO: 93 by order of listing (antibody, V domains shown) VH: DVQLQESGPGLVKPSQTLSLTCTVTGYSITSDYAWNWIRQFPGKKLEWMGYISYSGSTSYNPSLKSRITISRDTSKNQFSLQLNSVTAADTATYFCARDYGYVFDYWGQGTTLTVSS VL: DVQITQSPSSLSASPGDRITLTCRASKNIYKYLAWYQEKPGKANKLLIYSGSTLHSGIPSRFSGSGSGTDFTLTISSLQPEDFAMYYCQQHNDYPYTFGQGTKLEIK" observable=ka value_reported=6.4E+05
molecule="he.06.275-1: HUMAN-ENGINEERED antibody from XHA.06.275; variable regions SEQ ID NO: 91 and SEQ ID NO: 93 by order of listing (antibody, V domains shown) VH: DVQLQESGPGLVKPSQTLSLTCTVTGYSITSDYAWNWIRQFPGKKLEWMGYISYSGSTSYNPSLKSRITISRDTSKNQFSLQLNSVTAADTATYFCARDYGYVFDYWGQGTTLTVSS VL: DVQITQSPSSLSASPGDRITLTCRASKNIYKYLAWYQEKPGKTNNLLIYSGSTLHSGIPSRFSGSGSGTDFTLTISSLQPEDFAMYYCQQHNDYPYTFGQGTKLEIK" observable=ka value_reported=6.2E+05
